# credit: patent US7161032B2

tested on: Smaller Tea Tortrix (Adoxophyes sp.); test: Insecticidal effect on smaller tea tortrix (Test Example 3): tea leaves immersed in 50 ppm liquid chemical; assay type: in vivo; conditions: smaller tea tortrix (Adoxophyes sp.) larvae, 8 days after inoculation, 25° C., humidity 70%
assay_metric: Insecticidal effect (mortality grade), Test Example 3

// solved cases for Insecticidal effect (mortality grade), Test Example 3 follow
| molecule | result |
| --- | --- |
| CCCNS(=O)(=O)CC(C)NC(=O)c1c(Br)cccc1C(=O)Nc1ccc(C(F)(C(F)(F)F)C(F)(F)F)cc1C (stereo not shown) | A (Mortality 100%) |
| CCSCCNS(=O)(=O)CC(C)(C)NC(=O)c1c(I)cccc1C(=O)Nc1ccc(C(F)(F)C(F)(F)F)cc1C | A (Mortality 100%) |
| Cc1cc(C(F)(C(F)(F)F)C(F)(F)F)ccc1NC(=O)c1cccc(I)c1C(=O)NC(C)CS(=O)(=O)NCc1ccccc1F (stereo not shown) | A (Mortality 100%) |
| CCN(CC)S(=O)(=O)CC(C)NC(=O)c1c(I)cccc1C(=O)Nc1ccc(C(F)(C(F)(F)F)C(F)(F)F)cc1C (stereo not shown) [1-6] | A (Mortality 100%) |
| CSCCNS(=O)(=O)CC(C)NC(=O)c1c(I)cccc1C(=O)Nc1ccc(C(F)(C(F)(F)F)C(F)(F)F)cc1C (stereo not shown) | A (Mortality 100%) |

Moving on to another molecule below.
Asked: For the molecule Cc1cc(C(F)(C(F)(F)F)C(F)(F)F)ccc1NC(=O)c1cccc(I)c1C(=O)N[C@@H](C)CS(=O)(=O)N[C@@H](C)C[S+](C)[O-] (stereo partly shown) , what Insecticidal effect (mortality grade), Test Example 3 is on record?
Given back: A (Mortality 100%)

* * *

test system: Smaller Tea Tortrix (Adoxophyes sp.); test: Insecticidal effect on smaller tea tortrix (Test Example 3): tea leaves immersed in 50 ppm liquid chemical; assay type: in vivo; details: smaller tea tortrix (Adoxophyes sp.) larvae, 8 days after inoculation, 25° C., humidity 70%
assay_metric: Insecticidal effect (mortality grade), Test Example 3

| compound | result |
| --- | --- |
| Cc1cc(C(F)(C(F)(F)F)C(F)(F)F)ccc1NC(=O)c1cccc(I)c1C(=O)NC(C)CS(=O)(=O)NCc1cccc([N+](=O)[O-])c1 (stereo not drawn) [1-30] | A (Mortality 100%) |
| Cc1cc(C(F)(C(F)(F)F)C(F)(F)F)ccc1NC(=O)c1cccc(I)c1C(=O)NC(C)CS(=O)(=O)NC(C)C(N)=O (stereo not drawn) [1-103] | A (Mortality 100%) |
